target: WT/R232 STING protein (Homo sapiens, UniProt Q86WV6, H232R); construct: host or cells: HEK293T; test: Luciferase reporter assay in HEK293T-hSTING-Luciferase cells (R232); format: cell-based; details: 20 hr stimulation, EC50 range
Sequence (Q86WV6 whole entry H232R): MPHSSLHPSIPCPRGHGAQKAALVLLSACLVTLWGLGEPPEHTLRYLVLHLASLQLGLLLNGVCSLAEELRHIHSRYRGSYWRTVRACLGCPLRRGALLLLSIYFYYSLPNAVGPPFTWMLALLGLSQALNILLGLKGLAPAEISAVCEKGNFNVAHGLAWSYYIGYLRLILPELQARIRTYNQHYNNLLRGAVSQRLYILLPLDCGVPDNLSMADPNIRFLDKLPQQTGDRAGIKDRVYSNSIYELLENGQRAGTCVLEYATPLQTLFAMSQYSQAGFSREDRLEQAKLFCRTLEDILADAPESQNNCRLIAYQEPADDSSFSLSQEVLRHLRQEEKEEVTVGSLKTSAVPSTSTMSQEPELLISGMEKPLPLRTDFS
pEC50: −log10 of the molar value.
quantityKind: pEC50

Cc1cccc(CN2C(=O)C(C)(C)c3ccc(C(=O)NCc4c(F)cc(F)cc4F)cc32)c1F : ≥ 6.00
Cc1nn(C)cc1CN1C(=O)C(C)(C)c2ccc(C(=O)NCc3c(F)cc(F)cc3F)cc21 : < 5.00
Cc1ccc(CNC(=O)c2ccc3c(c2)N(Cc2c(F)cccc2Cl)C(=O)C3(C)C)s1 : 5.00 to 6.00
CC1(C)C(=O)N(Cc2ccc(F)cc2)c2cc(C(=O)NCc3c(F)cc(F)cc3F)ccc21 : ≥ 6.00
Cc1nnc(CNC(=O)c2ccc3c(c2)N(Cc2cc(F)cc(F)c2)C(=O)C3(C)C)o1 : < 5.00
CC1(C)C(=O)N(Cc2cc(F)cc(F)c2)c2cc(C(=O)NCC3CCC(F)(F)CC3)ccc21 : < 5.00
O=C(NCc1c(F)cc(F)cc1F)c1ccc2c(c1)N(Cc1cc(F)cc(F)c1)C(=O)C21CCCCC1 : < 5.00
Cc1cc(CN2C(=O)C(C)(C)c3ccc(C(=O)NCc4cc5ccccc5o4)cc32)n(C)n1 : ≥ 6.00

Bench note: what pEC50 did Cc1ccc(CNC(=O)c2ccc3c(c2)N(Cc2ccc(F)c(F)c2)C(=O)C3(C)C)o1 show?
5.00 to 6.00

Bench note: what pEC50 did COc1ccc(F)c(CN2C(=O)C(C)(C)c3ccc(C(=O)NCc4c(F)cc(F)cc4F)cc32)c1Cl show?
≥ 6.00

Bench note: what pEC50 did CCn1nc(C)cc1CN1C(=O)C(C)(C)c2ccc(C(=O)NCc3cc4cc(F)ccc4o3)cc21 show?
≥ 6.00
